# ASSAY SYSTEM: Prothrombin (Bos taurus)
# EXPERIMENT DESCRIPTION: bovine thrombin protease inhibition, dose response, counter-screen for Rpn11 inhibitor project, biochemical, fluorescence polarization, SAR validation (AID 686918)
# COND: bovine thrombin cleavage of Ub4-pepOG
Active and inactive are the calls of the source.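 How the source made its calls: active means thrombin counterscreen IC50 at or below 100 µM; inactive means the rest.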
Parameter: IC50. Scope: all listed entries.

| STRUCTURE AS SMILES | IC50 |
| --- | --- |
| Cc1cccc(C(=O)Sc2cccc3cccnc23)c1 | > 99 µM (inactive) |
| O=C(Sc1cccc2cccnc12)c1ccccc1Br | > 99 µM (inactive) |
| CC(C)Cc1ccc(C(=O)Sc2cccc3cccnc23)cc1 | > 99 µM (inactive) |
| O=C(Sc1cccc2cccnc12)c1cccc(Cl)c1 | > 99 µM (inactive) |
| CC(C)(C)OC(=O)CCNC(=O)c1cnc2c(SSc3cccc4cc(C(=O)NCCC(=O)OC(C)(C)C)cnc34)cccc2c1 | > 99 µM (inactive) |
| CCOc1ccccc1C(=O)Sc1cccc2cccnc12 | > 99 µM (inactive) |
| N#Cc1ccc(C(=O)Sc2cccc3cccnc23)cc1 | > 99 µM (inactive) |
| CC[C@@H](C)[C@H](NC(=O)c1cnc2c(SSc3cccc4cc(C(=O)N[C@H](C(=O)O)[C@H](C)CC)cnc34)cccc2c1)C(=O)O | > 99 µM (inactive) |
| O=C(Sc1cccc2cccnc12)c1ccccc1Cl | > 99 µM (inactive) |
| CC[C@@H](C)[C@H](NC(=O)c1cnc2c(SSc3cccc4cc(C(=O)N[C@H](C(=O)OC)[C@@H](C)CC)cnc34)cccc2c1)C(=O)OC | > 99 µM (inactive) |
| CC(C)C[C@H](NC(=O)c1cnc2c(SSc3cccc4cc(C(=O)N[C@@H](CC(C)C)C(=O)O)cnc34)cccc2c1)C(=O)O | > 99 µM (inactive) |
| COc1ccc(C(=O)Sc2cccc3cccnc23)cc1OC | > 99 µM (inactive) |
| O=C(Sc1cccc2cccnc12)C1CCCCC1 | > 99 µM (inactive) |
| COC(=O)C[C@H](NC(=O)c1cnc2c(SSc3cccc4cc(C(=O)N[C@@H](CC(=O)OC)C(=O)OC)cnc34)cccc2c1)C(=O)OC | > 99 µM (inactive) |
| COC(=O)[C@H](C)N(C)C(=O)c1cnc2c(SSc3cccc4cc(C(=O)N(C)[C@@H](C)C(=O)OC)cnc34)cccc2c1 | > 99 µM (inactive) |
| COC(=O)[C@H](C)NC(=O)c1cnc2c(SSc3cccc4cc(C(=O)N[C@@H](C)C(=O)OC)cnc34)cccc2c1 | > 99 µM (inactive) |
| O=C(Sc1cccc2cccnc12)c1ccccc1I | > 99 µM (inactive) |
| O=C(Sc1cccc2cccnc12)c1c(Cl)cccc1Cl | > 99 µM (inactive) |
| COc1cccc(C(=O)Sc2cccc3cccnc23)c1 | > 99 µM (inactive) |
| Cc1ccc(C(=O)Sc2cccc3cccnc23)cc1 | > 99 µM (inactive) |
| COc1ccc(C(=O)Sc2cccc3cccnc23)cc1 | > 99 µM (inactive) |
| O=C(Sc1cccc2cccnc12)c1ccc(F)cc1 | > 99 µM (inactive) |
| O=C(Sc1cccc2cccnc12)c1ccccc1[N+](=O)[O-] | > 99 µM (inactive) |
| O=C(Sc1cccc2cccnc12)c1ccc(F)c(F)c1 | > 99 µM (inactive) |
| N#Cc1cccc(C(=O)Sc2cccc3cccnc23)c1 | > 99 µM (inactive) |
| O=C(Sc1cccc2cccnc12)c1cccc2ccccc12 | > 99 µM (inactive) |
| O=C(O)[C@@H]1CCCN1C(=O)c1cnc2c(SSc3cccc4cc(C(=O)N5CCC[C@H]5C(=O)O)cnc34)cccc2c1 | > 99 µM (inactive) |
| O=C(Sc1cccc2cccnc12)c1ccccc1F | > 99 µM (inactive) |
| O=C(Sc1cccc2cccnc12)c1ccccc1 | > 99 µM (inactive) |
| O=C(Sc1cccc2cccnc12)c1ccc(C(F)(F)F)cc1 | > 99 µM (inactive) |
| COc1ccccc1C(=O)Sc1cccc2cccnc12 | > 99 µM (inactive) |
| COC(=O)[C@@H](NC(=O)c1cnc2c(SSc3cccc4cc(C(=O)N[C@H](C(=O)OC)C(C)C)cnc34)cccc2c1)C(C)C | > 99 µM (inactive) |
| O=C(Sc1cccc2cccnc12)c1ccc([N+](=O)[O-])cc1 | > 99 µM (inactive) |
| O=C(Sc1cccc2cccnc12)c1cccc(C(F)(F)F)c1 | > 99 µM (inactive) |
| Cc1ccccc1C(=O)Sc1cccc2cccnc12 | > 99 µM (inactive) |
| O=C(Sc1cccc2cccnc12)c1ccccc1OC(F)(F)F | > 99 µM (inactive) |
| COC(=O)c1cnc2c(SSc3cccc4cc(C(=O)OC)cnc34)cccc2c1 | > 99 µM (inactive) |
| O=C(Sc1cccc2cccnc12)c1ccc2c(c1)OCO2 | > 99 µM (inactive) |
| O=C(O)c1cnc2c(SSc3cccc4cc(C(=O)O)cnc34)cccc2c1 | > 99 µM (inactive) |
| CC(C)[C@H](NC(=O)c1cnc2c(SSc3cccc4cc(C(=O)N[C@H](C(=O)O)C(C)C)cnc34)cccc2c1)C(=O)O | > 99 µM (inactive) |
